All values here come from patent US9266883B2.

- target system: Tel-FGFR4 (Homo sapiens (Human), UniProt P22455)
- Sequence (P22455 other isoform, or with tags, fused parts or gaps): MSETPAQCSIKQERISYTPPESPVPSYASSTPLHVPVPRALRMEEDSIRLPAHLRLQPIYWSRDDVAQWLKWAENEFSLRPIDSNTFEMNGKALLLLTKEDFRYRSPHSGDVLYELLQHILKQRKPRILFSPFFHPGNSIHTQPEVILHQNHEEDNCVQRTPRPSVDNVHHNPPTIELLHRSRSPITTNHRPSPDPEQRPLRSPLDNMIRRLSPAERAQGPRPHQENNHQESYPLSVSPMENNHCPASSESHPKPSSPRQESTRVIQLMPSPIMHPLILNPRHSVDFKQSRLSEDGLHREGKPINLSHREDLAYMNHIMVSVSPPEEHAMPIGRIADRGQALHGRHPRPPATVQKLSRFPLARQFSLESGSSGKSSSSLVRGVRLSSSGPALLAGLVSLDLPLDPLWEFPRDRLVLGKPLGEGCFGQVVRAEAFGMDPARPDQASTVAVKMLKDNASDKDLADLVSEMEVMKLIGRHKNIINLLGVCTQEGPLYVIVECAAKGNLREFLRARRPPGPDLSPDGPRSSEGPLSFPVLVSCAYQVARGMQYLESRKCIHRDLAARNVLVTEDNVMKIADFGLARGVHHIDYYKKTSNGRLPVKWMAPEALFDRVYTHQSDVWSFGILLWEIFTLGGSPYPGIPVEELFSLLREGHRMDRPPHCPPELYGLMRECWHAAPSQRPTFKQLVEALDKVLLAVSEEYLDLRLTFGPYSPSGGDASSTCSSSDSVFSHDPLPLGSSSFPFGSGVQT
- assay notes: In vitro cellular kinase assay for FGFR4 (BaF3-Tel-FGFR4 cells, MSD capture ELISA of tyrosine phosphorylation)
- Format: cell-based
- condition notes: measured and considered as outlier values, not included in the table or list; read-out: IC50 in the cellular BaF3 FGFR4 assay, outlier values
value type: IC50

{"smiles record": "COC[C@@H](C)Oc1cc(NC(=O)N2CCCc3cc(CN(C)C(C)=O)c(C=O)nc32)ncc1C#N", "target system": "Tel-FGFR4 (Homo sapiens (Human), UniProt P22455)", "reading": "174 nM"}
{"smiles record": "CCC(=O)N(C)Cc1cc2c(nc1C=O)N(C(=O)Nc1cc(OC(C)C)c(C#N)cn1)CCC2", "target system": "Tel-FGFR4 (Homo sapiens (Human), UniProt P22455)", "reading": "> 3000 nM"}

Ask: For CN1CCN(Cc2cc3c(nc2C=O)N(C(=O)Nc2cc(NCCOS(=O)(=O)O)c(C#N)cn2)CCC3)C(=O)C1 , what is its reported IC50?
Reply: > 3000 nM

---

pIC50: −log10 of the molar value.
Reported pIC50 for target or system FGFR1 (407-822) (Homo sapiens (Human)), by entry.

{"molecule": "COCCNc1cc(NC(=O)N2c3nc(C=O)c(CN4CCN(C)CC4=O)cc3CC[C@@H]2C)ncc1C#N", "target system": "FGFR1 (407-822) (Homo sapiens (Human))", "reading": "< 5.00"}
{"molecule": "N#Cc1cnc(NC(=O)N2CCCc3cc(CO)c(C=O)nc32)cc1NC1CCOC1 (racemic)", "target system": "FGFR1 (407-822) (Homo sapiens (Human))", "reading": "< 5.00"}

Now examine the next entry.
Ask: Tell me reported pIC50 for CCOc1cc(NC(=O)N2CCCc3ccc(C=O)nc32)ncc1C#N , tested with FGFR1 (407-822) (Homo sapiens (Human)).
Sequence (P11362 407-822): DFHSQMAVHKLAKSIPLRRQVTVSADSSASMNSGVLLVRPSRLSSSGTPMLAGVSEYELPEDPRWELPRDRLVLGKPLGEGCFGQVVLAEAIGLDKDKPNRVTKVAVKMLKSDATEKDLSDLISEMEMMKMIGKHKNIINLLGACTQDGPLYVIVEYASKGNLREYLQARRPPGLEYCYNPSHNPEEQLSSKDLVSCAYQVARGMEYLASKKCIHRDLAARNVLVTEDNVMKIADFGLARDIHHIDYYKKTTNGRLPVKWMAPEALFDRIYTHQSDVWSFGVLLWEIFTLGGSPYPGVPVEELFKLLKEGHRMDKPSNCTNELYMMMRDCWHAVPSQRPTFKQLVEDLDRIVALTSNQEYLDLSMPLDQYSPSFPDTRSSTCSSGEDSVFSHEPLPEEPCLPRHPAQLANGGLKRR
Reply: < 5.00

---

- target system: Tel-FGFR4 (Homo sapiens (Human))
- assay notes: In vitro cellular kinase assay for FGFR4 (BaF3-Tel-FGFR4 cells, MSD capture ELISA of tyrosine phosphorylation)
- Type: cell-based
- condition notes: BaF3-Tel-FGFR4 cells, 1 hour incubation; read-out: Cellular BaF3 FGFR4 IC50
pIC50: −log10 of the molar value.
Please use criterion met whenever pIC50 is not below 8, and criterion not met whenever it is.

Below are worked cases with known answers.
{"molecule": "N#Cc1cnc(NC(=O)N2CCCc3cc(CO)c(C=O)nc32)cc1OCC1CCCCO1 (racemic)", "class assignment": "criterion not met"}
{"molecule": "COCCNc1cc(NC(=O)N2CCCc3cc(CN4CCS(=O)(=O)CC4=O)c(C=O)nc32)ncc1C#N", "class assignment": "criterion met"}
{"molecule": "N#Cc1cnc(NC(=O)N2CCCc3cc(CO)c(C=O)nc32)cc1OCC(O)CCCl (racemic)", "class assignment": "criterion not met"}
{"molecule": "CC(C)Oc1cc(NC(=O)N2CCCc3cc(CN(C)C(=O)CO)c(C=O)nc32)ncc1C#N", "class assignment": "criterion met"}
{"molecule": "CN(C)CC1CN(c2cc(NC(=O)N3CCCc4cc(CO)c(C=O)nc43)ncc2C#N)CCO1 (racemic)", "class assignment": "criterion not met"}

Ask: Decide: pIC50 of COC[C@H](C)Oc1nc(NC(=O)N2CCCc3cc(CO)c(C=O)nc32)ncc1Cl >= 8?
Reply: criterion not met
